assay-details: small-molecule binders of probe aLefty1, primary screen, biochemical, small-molecule microarray, 635/667 nm fluorescence (AID 1153);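 further: score merges spot fluorescence with signal-to-noise ratio from the scanned slide images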
measurement-parameters: higher = more signal
readout-label: composite z-score
// keep it numeric: no unit symbol after the value

Fill in: composite z-score of COc1cc(NN2C(C(O)c3ccco3)C=CC3C(=O)N(c4ccccc4)C(=O)C32)cc(OC)c1OC (centres undefined) is ___ -0.441

Fill in: composite z-score of CCCC=C(CCC)[C@@H](NC(=O)c1cccs1)c1ccc(C(F)(F)F)cc1 is ___ 0.504

Fill in: composite z-score of COCCOC(=O)N1C(=O)[C@@]2(c3cc(C#CC4(O)CCCCCC4)ccc31)[C@H](c1ccc(OCCO)cc1)N1[C@H](c3ccccc3)[C@H](c3ccccc3)OC(=O)[C@H]1[C@@H]2C(=O)N1CCN(c2ncccn2)CC1 is ___ 0.813

Fill in: composite z-score of CCCC[C@@H]1C[C@H]1[C@@H](NC(=O)c1ccccc1)c1ccc(C(=O)OC)cc1 is ___ 0.357
